tested on: Pseudomonas aeruginosa; test: Antibacterial activity against Pseudomonas aeruginosa isolate 22 V143708 after 24 hrs; type: functional; details: isolate 22 V143708, 24 h
READOUT: MIC

Look up and report measured MIC for this entry: CCCC[C@H]1CCCC[C@H](C)[C@@H](O)c2cc(O)c(c(O)c2)[C@@H](CCCC)CCCC[C@H](C)[C@@H](OC(C)=O)c2cc(O)c1c(O)c2
> 80 µM

Look up and report measured MIC for this entry: CCCCC(Cl)CCCC[C@H](C)[C@@H](OC(C)=O)c1cc(O)cc(O)c1 (stereo partly specified)
> 135 µM

Look up and report measured MIC for this entry: CCCCC(Cl)CCCC[C@H](C)[C@@H](OC(C)=O)c1cc(O)c([C@@H](CCCC)CCCC[C@H](C)[C@@H](OC(C)=O)c2cc(O)cc(O)c2)c(O)c1 (stereo partly specified)
> 71 µM

Look up and report measured MIC for this entry: CCCCC(Cl)CCCC[C@H](C)[C@@H](O)c1cc(O)c([C@@H](CCCC)CCCC[C@H](C)[C@@H](OC(C)=O)c2cc(O)cc(O)c2)c(O)c1 (stereo partly specified)
> 75 µM

Look up and report measured MIC for this entry: CCCC[C@H]1CCCC[C@H](C)[C@@H](O)c2cc(O)c(c(O)c2)[C@@H](CCCC)CCCC[C@H](C)[C@@H](O)c2cc(O)c1c(O)c2
> 85 µM

Look up and report measured MIC for this entry: CCCC[C@H]1CCCC[C@H](C)[C@@H](OC(C)=O)c2cc(O)c(c(O)c2)[C@@H](CCCC)CCCC[C@H](C)[C@@H](OC(C)=O)c2cc(O)c1c(O)c2
> 75 µM

###

system: HaCaT; assay: Cytotoxicity against human HaCaT cells by Cell titre-blue assay; type: cell-based
READOUT: IC50 (µM)
I only need the number, in µM, no unit after it.

INSERT INTO results (molecule, readout, result_units, number) VALUES
  ('CCCC[C@H]1CCCC[C@H](C)[C@@H](O)c2cc(O)c(c(O)c2)[C@@H](CCCC)CCCC[C@H](C)[C@@H](O)c2cc(O)c1c(O)c2 [CYLINDROCYCLOPHANE A]', 'IC50', 'µM', 5),
  ('CCCC[C@H]1CCCC[C@H](C)[C@@H](OC(C)=O)c2cc(O)c(c(O)c2)[C@@H](CCCC)CCCC[C@H](C)[C@@H](OC(C)=O)c2cc(O)c1c(O)c2', 'IC50', 'µM', 11);

Look up and report measured IC50 for this entry: CCCCC(Cl)CCCC[C@H](C)[C@@H](OC(C)=O)c1cc(O)cc(O)c1 (some centres not stated)
100

Look up and report measured IC50 for this entry: CCCC[C@H]1CCCC[C@H](C)[C@@H](O)c2cc(O)c(c(O)c2)[C@@H](CCCC)CCCC[C@H](C)[C@@H](OC(C)=O)c2cc(O)c1c(O)c2
2.9

Look up and report measured IC50 for this entry: CCCCC(Cl)CCCC[C@H](C)[C@@H](OC(C)=O)c1cc(O)c([C@@H](CCCC)CCCC[C@H](C)[C@@H](OC(C)=O)c2cc(O)cc(O)c2)c(O)c1 (some centres not stated)
25

Look up and report measured IC50 for this entry: CCCCC(Cl)CCCC[C@H](C)[C@@H](O)c1cc(O)c([C@@H](CCCC)CCCC[C@H](C)[C@@H](OC(C)=O)c2cc(O)cc(O)c2)c(O)c1 (some centres not stated)
25

Look up and report measured IC50 for this entry: O=C1c2c(O)ccc(O)c2C(=O)c2c(NCCNCCO)ccc(NCCNCCO)c21 [MITOXANTRONE]
3.9

// provenance: ChEMBL document CHEMBL3785064
